Origin of measurements: the NIST ThermoML archive (doi:10.1016/j.jct.2012.03.005)

test: activity coefficient (dimensionless); of the first substance listed, at infinite dilution; xn = mol fraction of the nth substance listed; settings: 358.15 K; 101 kPa; Liquid; Chromatography; x1 = 0
Binary call on activity coefficient with cut-off 8: strictly below means 1, and equality or higher means -1.

In [3]: df
Out[3]:
                                    molecule  class_assignment
 0  CO [methanol] + CCn1cc[n+](C)c1.CS(=O)(=O)[O-]                 1
 1  CC(C)=O [acetone] + CCn1cc[n+](C)c1.CS(=O)(=O)[O-]                -1
 2  Cc1cccc(C)c1 [1,3-dimethylbenzene] + CCn1cc[n+](C)c1.CS(=O)(=O)[O-]                -1
 3  CCCC(C)=O [pentan-2-one] + CCn1cc[n+](C)c1.CS(=O)(=O)[O-]                 1
 4  CCC[N+](=O)[O-] [1-nitropropane] + CCn1cc[n+](C)c1.CS(=O)(=O)[O-]                 1
 5  CCc1ccccc1 [ethylbenzene] + CCn1cc[n+](C)c1.CS(=O)(=O)[O-]                -1
 6  c1ccsc1 [thiophene] + CCn1cc[n+](C)c1.CS(=O)(=O)[O-]                 1
 7  Cc1ccc(C)cc1 [1,4-dimethylbenzene] + CCn1cc[n+](C)c1.CS(=O)(=O)[O-]                -1
 8  C=Cc1ccccc1 [styrene] + CCn1cc[n+](C)c1.CS(=O)(=O)[O-]                 1
 9  Cc1ccccc1C [1,2-dimethylbenzene] + CCn1cc[n+](C)c1.CS(=O)(=O)[O-]                -1
10  CCO [ethanol] + CCn1cc[n+](C)c1.CS(=O)(=O)[O-]                 1
11  CCC(=O)CC [pentan-3-one] + CCn1cc[n+](C)c1.CS(=O)(=O)[O-]                 1
12  Cc1ccccc1 [toluene] + CCn1cc[n+](C)c1.CS(=O)(=O)[O-]                -1
13  O [water] + CCn1cc[n+](C)c1.CS(=O)(=O)[O-]                 1
14  CC#N [acetonitrile] + CCn1cc[n+](C)c1.CS(=O)(=O)[O-]                 1
15  CCCCCCCCC [nonane] + CCn1cc[n+](C)c1.CS(=O)(=O)[O-]                -1
16  CCCO [propan-1-ol] + CCn1cc[n+](C)c1.CS(=O)(=O)[O-]                 1
17  c1ccccc1 [benzene] + CCn1cc[n+](C)c1.CS(=O)(=O)[O-]                -1
18  CCCCCCCCCC [decane] + CCn1cc[n+](C)c1.CS(=O)(=O)[O-]                -1
19  C1CCOC1 [tetrahydrofuran] + CCn1cc[n+](C)c1.CS(=O)(=O)[O-]                 1
20  C=C(C)c1ccccc1 [(1-methylethenyl)benzene] + CCn1cc[n+](C)c1.CS(=O)(=O)[O-]                -1
21  C1COCCO1 [1,4-dioxane] + CCn1cc[n+](C)c1.CS(=O)(=O)[O-]                 1
22  c1ccncc1 [pyridine] + CCn1cc[n+](C)c1.CS(=O)(=O)[O-]                 1
